# MEASURED_ON: Adenosine A1 receptor (Cavia porcellus, UniProt P47745)
# Construct: from tissue; host or cells: guinea pig forebrain membranes
# Sequence (P47745 1-326): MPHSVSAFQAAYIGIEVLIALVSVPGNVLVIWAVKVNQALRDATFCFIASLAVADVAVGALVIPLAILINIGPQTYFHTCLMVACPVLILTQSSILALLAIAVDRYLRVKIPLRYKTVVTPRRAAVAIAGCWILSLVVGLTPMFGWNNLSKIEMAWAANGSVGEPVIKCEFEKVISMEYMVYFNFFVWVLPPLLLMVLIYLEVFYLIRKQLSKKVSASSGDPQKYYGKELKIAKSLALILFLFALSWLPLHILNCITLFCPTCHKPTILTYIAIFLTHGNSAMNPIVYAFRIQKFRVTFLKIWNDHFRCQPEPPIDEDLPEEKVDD
# PROTOCOL_NOTES: Affinity binding (Ki) of Tables 4 and 5
# CONDITION: Table 5; read-out: Ki
ASSAY_ENDPOINT: Ki (nM)

> print(dat)
                                   compound  assay.endpoint  observed.measurement
1  CCCNC(=S)OC[C@H]1O[C@@H](n2cnc3c(N[C@@H]4CCOC4)ncnc32)[C@H](O)[C@@H]1O              Ki                   895
2  O[C@@H]1[C@H](O)[C@@H](CSc2c(Cl)cccc2Cl)O[C@H]1n1cnc2c(N[C@@H]3CCOC3)ncnc21              Ki                  1340
3  CNC(=S)OC[C@H]1O[C@@H](n2cnc3c(N[C@@H]4CCOC4)nc(Cl)nc32)[C@H](O)[C@@H]1O              Ki                  1110
4  O[C@@H]1[C@H](O)[C@@H](CSc2cccc(F)c2)O[C@H]1n1cnc2c(N[C@@H]3CCOC3)ncnc21              Ki                  1560
5  CC(C)NC(=S)OC[C@H]1O[C@@H](n2cnc3c(N[C@@H]4CCOC4)ncnc32)[C@H](O)[C@@H]1O              Ki                  1370

(P) CCCCNC(=O)OCC1OC(n2cnc3c(N[C@@H]4CCOC4)ncnc32)C(O)C1O (some centres unmarked)
(Q) CNC(=S)OC[C@H]1O[C@@H](n2cnc3c(N[C@@H]4CCOC4)ncnc32)[C@H](O)[C@@H]1O
Return label of the item with the larger Ki. Candidates: P , Q . # respond with the chosen item's label
P
(P: 9630 nM, Q: 346 nM)
